The origin of these recorded values is patent US7273877B2.

# Tested on: phosphorylation of MAP kinase (ERK) in murine colon 26 (C26) carcinoma cells
# assay method text: Cellular inhibition of ERK phosphorylation, C26ELSA (pERK ELISA format)
# Type: cell-based
# assay conditions: Mus musculus, 1 h, C26 cells treated with test compound for one hour at 37° C.
reported metric: IC50 (nM)
Numbers only, in nM.

Example results:
> print(dat)
                                   compound  reported.metric  units  recorded.value
1  Cn1cc(C(=O)NCCCO)c(Nc2ccc3ccccc3c2)cc1=O [Example 42]             IC50     nM              93
2  CSc1ccc(Nc2cc(=O)n(C)cc2C(=O)NCCCO)c(F)c1 [Example 85]             IC50     nM             150
3  C#Cc1ccc(Nc2cc(=O)n(C)cc2C(N)=O)c(F)c1 [Example 17]             IC50     nM              21
4  CSc1ccc(Nc2cc(=O)n(C)cc2-c2nnc(NCC(O)CO)o2)c(F)c1 (centres unmarked) [Example 92]             IC50     nM            1240
5  Cn1cc(C(N)=O)c(Nc2ccc(Br)cc2F)cc1=O [Example 40]             IC50     nM             120
6  CCOC(=O)c1cn(C)c(=O)cc1Nc1ccc2c(c1)CCC2 [Example 58]             IC50     nM            3900
7  Cn1cc(C(=O)NOCCO)c(Nc2ccc(I)cc2F)cc1=O [Example 1]             IC50     nM             4.9
8  Cn1cc(C(N)=O)c(Nc2ccc(I)cc2F)cc1=O [Example 10]             IC50     nM             4.4

I have 3 compounds here; please give me IC50 for each one.
1. NC(=O)c1c[nH]c(=O)cc1Nc1ccc(I)cc1F [Example 19]
2. C=CCn1cc(C(N)=O)c(Nc2ccc(I)cc2F)cc1=O [Example 30]
3. Cn1cc(C(N)=O)c(Nc2ccc(CCCO)cc2F)cc1=O [Example 21]

Result:
1. 110
2. 430
3. 630

* * *

Please provide measured melting point for the entries that follow.

Example results:
> print(dat)
                                   molecule  recorded.value
1  NC(=O)c1cn(CC(O)CO)c(=O)cc1Nc1ccc(I)cc1F (centres unmarked) [Example 31]   210 to 213 °C
2  O=C(NCCCO)c1c[nH]c(=O)cc1Nc1ccc(I)cc1F [Example 14]   253 to 255 °C
3  Cn1cc(C(=O)NCC(O)CO)c(Nc2ccc(I)cc2F)cc1=O (centres unmarked) [Example 45]    96 to 101 °C
4  NC(=O)c1cn(CCO)c(=O)cc1Nc1ccc(I)cc1F [Example 22]   212 to 215 °C
5  NC(=O)c1cn(CC(=O)O)c(=O)cc1Nc1ccc(I)cc1F [Example 25]   296 to 300 °C

I have 3 molecules here; please give me melting point for each one.
1. NC(=O)c1cn(CCCO)c(=O)cc1Nc1ccc(I)cc1F [Example 32]
2. CC(CO)NC(=O)c1cn(C)c(=O)cc1Nc1ccc(I)cc1F (centres unmarked) [Example 49]
3. C=CCn1cc(C(N)=O)c(Nc2ccc(I)cc2F)cc1=O [Example 30]

Result:
1: 220 to 223 °C; 2: 198 to 202 °C; 3: 215 to 217 °C

I have 6 molecules here; please give me melting point for each one.
1. O=C(O)Cn1cc(C(=O)NCCCO)c(Nc2ccc(I)cc2F)cc1=O [Example 24]
2. Cn1cc(C(=O)NCCCN)c(Nc2ccc(I)cc2F)cc1=O [Example 53]
3. Cc1ccc(Nc2cc(=O)n(C)cc2C(=O)NCCCO)c(F)c1 [Example 36]
4. CN(C)C(=O)c1cn(C)c(=O)cc1Nc1ccc(I)cc1F [Example 52]
5. N#CCCCn1cc(C(N)=O)c(Nc2ccc(I)cc2F)cc1=O [Example 26]
6. CCOC(=O)c1cn(C)c(=O)cc1Nc1ccc(C)c(C)c1 [Example 57]

Result:
199 to 202 °C
201 to 206 °C
142 to 145 °C
106 to 111 °C
146 to 150 °C
153 to 154 °C

* * *

Please provide measured melting point for the entries that follow.

Example results:
> print(dat)
                                    compound  recorded.value
 1  O=C(NCCO)c1c[nH]c(=O)cc1Nc1ccc(I)cc1F [Example 11]   254 to 256 °C
 2  Cc1ccc(Nc2cc(=O)n(C)cc2C(=O)O)cc1C [Example 63]   238 to 242 °C
 3  CCn1cc(C(N)=O)c(Nc2ccc(I)cc2F)cc1=O [Example 27]   260 to 262 °C
 4  Cn1cc(C(N)=O)c(Nc2ccc(Br)cc2F)cc1=O [Example 40]   282 to 284 °C
 5  Cn1cc(C(=O)O)c(Nc2ccc3c(c2)CCC3)cc1=O [Example 64]   218 to 220 °C
 6  Cn1cc(C(=O)NC(CO)(CO)CO)c(Nc2ccc(I)cc2F)cc1=O [Example 47]   100 to 105 °C
 7  CC(O)CNC(=O)c1cn(C)c(=O)cc1Nc1ccc(I)cc1F (centres unmarked) [Example 50]   161 to 166 °C
 8  Cn1cc(C(N)=O)c(Nc2ccc(C#N)cc2F)cc1=O [Example 54]   261 to 266 °C
 9  Cn1cc(C(=O)NOCCO)c(Nc2ccc(I)cc2F)cc1=O [Example 1]   148 to 151 °C
10  CCc1ccc(Nc2cc(=O)[nH]cc2C(=O)NCCO)c(F)c1 [Example 13]   256 to 258 °C

I have 8 compounds here; please give me melting point for each one.
1. CNC(=O)c1cn(C)c(=O)cc1Nc1ccc(I)cc1F [Example 51]
2. C#Cc1ccc(Nc2cc(=O)n(C)cc2C(N)=O)c(F)c1 [Example 17]
3. COCCOCCn1cc(C(N)=O)c(Nc2ccc(I)cc2F)cc1=O [Example 29]
4. CCOC(=O)c1cn(C)c(=O)cc1Nc1ccc2c(c1)CCC2 [Example 58]
5. Cn1cc(C(=O)NCCCO)c(Nc2ccc(CCCO)cc2F)cc1=O [Example 9]
6. Cn1cc(C(N)=O)c(Nc2ccc3ccccc3c2)cc1=O [Example 43]
7. Cn1cc(C(=O)NCCCO)c(Nc2ccc3ccccc3c2)cc1=O [Example 42]
8. Cn1cc(C(N)=O)c(Nc2ccc(C(F)(F)C(F)(F)C(F)(F)C(F)(F)F)cc2F)cc1=O

Result:
["252 to 254 °C", "269 to 272 °C", "114 to 116 °C", "141 to 143 °C", "161 to 164 °C", "254 to 257 °C", "78 to 83 °C", "112 to 118 °C"]

I have 2 compounds here; please give me melting point for each one.
1. Cn1cc(C(=O)O)c(Nc2ccc(I)cc2F)cc1=O [Example 55]
2. Cn1cc(C(=O)NCCCO)c(Nc2ccc(F)cc2F)cc1=O [Example 34]

Result:
254 to 257 °C
129 to 132 °C

* * *

Please provide measured melting point for the entries that follow.

Example results:
> print(dat)
                               query.smiles  recorded.value
1  C#Cc1ccc(Nc2cc(=O)[nH]cc2C(=O)NCCO)c(F)c1   265 to 273 °C
2    Cn1cc(C(N)=O)c(Nc2ccc(Cl)c(Cl)c2)cc1=O        > 250 °C
3    Cn1cc(C(=O)NOCCO)c(Nc2ccc(F)cc2F)cc1=O   232 to 238 °C

I have 3 molecules here; please give me melting point for each one.
1. NC(=O)c1c[nH]c(=O)cc1Nc1ccc(I)cc1F
2. Cn1cc(C(=O)NOCCO)c(Nc2ccc(Br)cc2F)cc1=O
3. Cn1cc(C(=O)NCCO)c(Nc2ccc(CCCO)cc2F)cc1=O

Result:
1. 320 to 325 °C
2. 124 to 128 °C
3. 177 to 179 °C

I have 2 molecules here; please give me melting point for each one.
1. Cn1cc(C(=O)NCCCO)c(Nc2ccc(I)cc2F)cc1=O
2. Cn1cc(C(=O)OCC(N)(CO)CO)c(Nc2ccc(I)cc2F)cc1=O

Result:
1. 81 to 86 °C
2. 117 to 122 °C

* * *

# System: phosphorylation of MAP kinase (ERK) in murine colon 26 (C26) carcinoma cells
# assay method text: Cellular inhibition of ERK phosphorylation, C26ELSA (pERK ELISA format)
# Format: cell-based
# assay conditions: Mus musculus, 1 h, C26 cells treated with test compound for one hour at 37° C.
pIC50: −log10 of the molar value.
reported metric: pIC50

Example results:
> print(dat)
                                   compound  recorded.value
1  Cc1ccc(Nc2cc(=O)n(C)cc2C(N)=O)c(F)c1 [Example 37]          ≤ 5.30
2  CSc1ccc(Nc2cc(=O)n(C)cc2-c2nnc(NC(CO)CO)o2)c(F)c1 [Example 91]          < 6.00
3  Cn1cc(C(=O)NCCO)c(Nc2ccc(CCCO)cc2F)cc1=O [Example 7]          ≤ 5.30

I have 8 compounds here; please give me pIC50 for each one.
1. CNC(=O)c1cn(C)c(=O)cc1Nc1ccc(I)cc1F [Example 51]
2. Cn1cc(C(=O)NCCCO)c(Nc2ccc(CCCO)cc2F)cc1=O [Example 9]
3. O=C(NCCCO)c1c[nH]c(=O)cc1Nc1ccc(I)cc1F [Example 14]
4. CSc1ccc(Nc2cc(=O)n(C)cc2-c2nnc(NCCO)o2)c(F)c1 [Example 90]
5. O=C(NCCO)c1c[nH]c(=O)cc1Nc1ccc(I)cc1F [Example 11]
6. CCOC(=O)c1cn(C)c(=O)cc1Nc1ccc(C)c(C)c1 [Example 57]
7. Cn1cc(C(=O)OCC(N)(CO)CO)c(Nc2ccc(I)cc2F)cc1=O [Example 48]
8. O=C(O)Cn1cc(C(=O)NCCCO)c(Nc2ccc(I)cc2F)cc1=O [Example 24]

Result:
≤ 5.30
≤ 5.30
≤ 5.30
< 5.30
≤ 5.30
≤ 5.30
≤ 5.30
≤ 5.30

Q: // query pIC50 value for entry Cn1cc(C(=O)NC(CO)(CO)CO)c(Nc2ccc(I)cc2F)cc1=O [Example 47]
Result: ≤ 5.30
